tested on: IM-9; assay: Cell viability, additional cell lines (CellTiter-Glo), IM-9; type: cell-based; conditions: Homo sapiens, IM-9, 72 h; read-out: Absolute IC50
Measure: pIC50
// scale note: pIC50 = -log10(conc_M); give the bare number

Give pIC50 for this entry on IM-9: O=C1CCC(N2Cc3cc(CNC(=O)C(F)(F)c4ccc(Cl)cc4)ccc3C2=O)C(=O)N1 (centres unmarked) [CC-90009, reference compound]
7.07

---

test system: UOC-M1; test: Cell viability, additional cell lines (CellTiter-Glo), UOC-M1; type: cell-based; details: UOC-M1, 72 h; read-out: Absolute IC50
pIC50: −log10 of the molar value.
Measure: pIC50

Give pIC50 for this entry on UOC-M1: NCc1ccc2c(c1)CN(C1CCC(=O)NC1=O)C2=O (stereo not shown)
≥ 7.00

---

molecular target: SALL4 (Homo sapiens, UniProt Q96SW2+Q9UJQ4); construct: SALL4 degradation in the Kelly cell line was investigated; endogenous in cells; host or cells: Kelly; test: SALL4 degradation assay, Kelly cell line (Western blot densitometry); type: cell-based; conditions: Kelly cells, 100 nM, 24 h, average from n ≥ 2 experiments
Sequence (Q9UJQ4 whole entry): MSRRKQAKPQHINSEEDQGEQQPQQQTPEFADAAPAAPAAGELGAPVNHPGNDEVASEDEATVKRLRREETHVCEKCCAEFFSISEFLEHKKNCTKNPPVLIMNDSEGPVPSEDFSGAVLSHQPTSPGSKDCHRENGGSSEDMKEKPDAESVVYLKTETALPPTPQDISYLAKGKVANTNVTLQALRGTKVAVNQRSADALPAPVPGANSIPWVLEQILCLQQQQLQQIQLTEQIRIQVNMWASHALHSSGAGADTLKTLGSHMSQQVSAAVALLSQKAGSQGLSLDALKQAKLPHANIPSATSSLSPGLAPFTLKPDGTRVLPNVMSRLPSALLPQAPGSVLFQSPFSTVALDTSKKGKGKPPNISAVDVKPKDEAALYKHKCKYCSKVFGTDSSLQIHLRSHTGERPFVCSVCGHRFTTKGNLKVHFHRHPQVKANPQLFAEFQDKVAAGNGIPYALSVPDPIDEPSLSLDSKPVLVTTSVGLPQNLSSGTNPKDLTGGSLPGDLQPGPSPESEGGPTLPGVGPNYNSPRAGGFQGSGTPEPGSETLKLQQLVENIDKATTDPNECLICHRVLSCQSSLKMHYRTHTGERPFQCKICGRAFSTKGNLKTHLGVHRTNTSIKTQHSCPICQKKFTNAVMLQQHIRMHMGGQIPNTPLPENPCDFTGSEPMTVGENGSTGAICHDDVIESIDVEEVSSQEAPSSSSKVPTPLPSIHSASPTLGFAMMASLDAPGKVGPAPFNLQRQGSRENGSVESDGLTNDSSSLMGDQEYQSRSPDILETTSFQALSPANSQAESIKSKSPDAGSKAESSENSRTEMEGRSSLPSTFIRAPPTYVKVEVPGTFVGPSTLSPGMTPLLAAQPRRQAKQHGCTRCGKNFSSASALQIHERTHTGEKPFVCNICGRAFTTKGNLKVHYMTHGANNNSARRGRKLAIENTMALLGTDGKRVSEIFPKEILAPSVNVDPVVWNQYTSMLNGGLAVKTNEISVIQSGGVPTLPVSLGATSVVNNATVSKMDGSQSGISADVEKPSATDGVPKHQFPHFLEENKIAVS
Sequence (Q96SW2 whole entry): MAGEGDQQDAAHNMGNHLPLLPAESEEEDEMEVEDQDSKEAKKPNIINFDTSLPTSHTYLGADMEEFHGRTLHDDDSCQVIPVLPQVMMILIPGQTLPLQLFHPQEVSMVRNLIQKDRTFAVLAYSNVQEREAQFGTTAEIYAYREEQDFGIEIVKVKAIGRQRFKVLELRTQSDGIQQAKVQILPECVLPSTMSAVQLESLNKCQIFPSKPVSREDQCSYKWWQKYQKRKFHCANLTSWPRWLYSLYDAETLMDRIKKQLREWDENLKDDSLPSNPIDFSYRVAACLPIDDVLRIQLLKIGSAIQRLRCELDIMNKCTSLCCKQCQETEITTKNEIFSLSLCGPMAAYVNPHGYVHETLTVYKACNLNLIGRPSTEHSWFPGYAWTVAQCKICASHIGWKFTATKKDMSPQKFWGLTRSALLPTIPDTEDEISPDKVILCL
Sequence (Q16531 whole entry partner): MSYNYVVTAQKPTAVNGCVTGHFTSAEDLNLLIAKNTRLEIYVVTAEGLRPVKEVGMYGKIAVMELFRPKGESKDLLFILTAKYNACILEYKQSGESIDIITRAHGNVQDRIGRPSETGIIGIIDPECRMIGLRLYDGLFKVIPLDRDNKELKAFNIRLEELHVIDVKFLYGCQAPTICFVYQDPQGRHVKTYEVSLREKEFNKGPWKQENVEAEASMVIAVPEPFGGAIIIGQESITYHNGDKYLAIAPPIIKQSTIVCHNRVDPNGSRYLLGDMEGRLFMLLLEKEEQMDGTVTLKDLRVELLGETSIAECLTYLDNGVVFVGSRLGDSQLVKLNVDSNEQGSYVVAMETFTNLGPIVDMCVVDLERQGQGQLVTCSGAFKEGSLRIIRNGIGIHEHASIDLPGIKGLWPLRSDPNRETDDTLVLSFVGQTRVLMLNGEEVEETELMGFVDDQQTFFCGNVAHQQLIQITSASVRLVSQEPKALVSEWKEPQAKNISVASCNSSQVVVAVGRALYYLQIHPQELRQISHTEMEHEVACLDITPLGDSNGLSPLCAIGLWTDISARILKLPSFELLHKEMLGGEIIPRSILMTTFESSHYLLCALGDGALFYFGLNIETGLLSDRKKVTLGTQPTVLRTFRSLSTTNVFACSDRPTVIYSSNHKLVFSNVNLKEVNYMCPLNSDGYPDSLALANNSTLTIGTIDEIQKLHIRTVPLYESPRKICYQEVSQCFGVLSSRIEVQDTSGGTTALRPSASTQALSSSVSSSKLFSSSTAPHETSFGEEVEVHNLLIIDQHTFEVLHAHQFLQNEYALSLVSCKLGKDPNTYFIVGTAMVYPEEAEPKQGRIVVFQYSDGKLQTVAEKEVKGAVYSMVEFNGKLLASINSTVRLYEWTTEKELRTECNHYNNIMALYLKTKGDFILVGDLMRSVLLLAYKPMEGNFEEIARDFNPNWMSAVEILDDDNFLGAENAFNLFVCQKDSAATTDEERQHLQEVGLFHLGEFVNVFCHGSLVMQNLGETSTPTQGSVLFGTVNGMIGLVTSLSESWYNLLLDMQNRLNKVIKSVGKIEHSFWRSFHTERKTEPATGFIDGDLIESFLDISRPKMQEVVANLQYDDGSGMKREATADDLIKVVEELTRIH
Measure: % of SALL4 protein reduction

{"Compound": "Nc1c(O)ccc2c1C(=O)N(C1CCC(=O)NC1=O)C2=O (stereo not shown)", "% of SALL4 protein reduction": ">80%"}
{"Compound": "CC(OC(=O)NCc1ccc2c(c1)CN(C1CCC(=O)NC1=O)C2=O)OC(=O)C(C)C (stereo not shown)", "% of SALL4 protein reduction": ">80%"}
{"Compound": "O=C1CCC(N2C(=O)c3ccccc3C2=O)C(=O)N1 (stereo not shown) [Thalidomide, reference compound]", "% of SALL4 protein reduction": "53%"}
{"Compound": "N[C@@H](Cc1cnc[nH]1)C(=O)NCc1ccc2c(c1)CN([C@@H]1CCC(=O)NC1=O)C2=O", "% of SALL4 protein reduction": ">80%"}
{"Compound": "[2H]C([2H])(N)c1ccc2c(c1)CN(C1CCC(=O)NC1=O)C2=O (stereo not shown)", "% of SALL4 protein reduction": ">80%"}

For the compound NCc1ccc2c(c1)CN(C1CCC(=O)NC1=O)C2=O (stereo not shown) , give its reported % of SALL4 protein reduction.
>80%

For the compound CC(=O)Oc1cc(C)cc(C)c1C(C)(C)CC(=O)NCc1ccc2c(c1)CN(C1CCC(=O)NC1=O)C2=O (stereo not shown) , give its reported % of SALL4 protein reduction.
>80%
